assay: Human HepG2 cell viability assay in 384 well format; format: toxicity, cell-based; parameters: dose 125 nL, time 70.5 hour; concentration not given beside the values; conditions: HepG2 cells, read-out: Inhibition
Entries annotated with measured cytotoxicity at 70.5 h
A number alone suffices; assume %.

Below are worked cases with known answers.
[
  {
    "COMPOUND": "Cc1ccc(CN2CCC3(CC2)CN(C(=O)c2cnccn2)CCO3)o1",
    "cytotoxicity at 70.5 h [%]": -6.5
  },
  {
    "COMPOUND": "CN1CCN(C2COC3(CCN(Cc4ccsc4)CC3)C2)CC1 (stereo unspecified)",
    "cytotoxicity at 70.5 h [%]": -8.09
  },
  {
    "COMPOUND": "CSCC[C@@H](CO)Nc1ccc(-c2nc(C3CC3)no2)cn1",
    "cytotoxicity at 70.5 h [%]": -3.18
  },
  {
    "COMPOUND": "COCCN1CCC2(CC1)CC(NC(=O)CC1CC1)c1ccccc1O2 (stereo unspecified)",
    "cytotoxicity at 70.5 h [%]": -6.99
  },
  {
    "COMPOUND": "Cc1cccn2c(CC(=O)N3CCC(CCn4cccn4)CC3)cnc12",
    "cytotoxicity at 70.5 h [%]": 13.1
  },
  {
    "COMPOUND": "c1ccc(CO[C@H]2C[C@@H]3CN(Cc4cccnc4)C[C@@H]3C2)cc1",
    "cytotoxicity at 70.5 h [%]": -3.52
  }
]

Now consider the entry below.
Given the entry O=C(CCNS(=O)(=O)c1ccc(F)c(F)c1)NCc1ccoc1 , report its measured cytotoxicity at 70.5 h.
-3.45

Every entry's value here was drawn from ChEMBL document CHEMBL3507680.
